Entry source: patent US20240317857A1

- measurement target: T1, human CD3 on human T cells (human, UniProt P07766 23-207)
- T1 construct: whole, on cells; also called human primary T cells; NFAT-Jurkat cells
- T1 sequence (P07766 23-207): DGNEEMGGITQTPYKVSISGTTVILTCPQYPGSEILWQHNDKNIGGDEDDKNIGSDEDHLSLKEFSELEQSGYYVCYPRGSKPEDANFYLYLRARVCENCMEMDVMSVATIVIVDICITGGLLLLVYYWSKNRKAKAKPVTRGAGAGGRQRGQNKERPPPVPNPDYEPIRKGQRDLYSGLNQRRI
- assay remarks: flow cytometry on human primary T cells
I'd be grateful if you could share measured pEC50 for these entries.
One number for each entry, as −log10 of the molar value.

binder	pEC50
murine monoclonal antibody AP191 (antibody, mouse IgG1, V domains shown) VH: QVQLQQSGPELVKPGASMKMSCKASGYTFTSYYIHWVKQRPGQGLEWIGWIYPGDGSTKFNEKFRGKTSLTADKSSNTAYMFLSSLTSEDSAIYFCARDGYSLYYFEFWGHGTTLTVSS VL: DIVMSQSPSSLAVSAGETVTMSCKSSQSLLNSRTRKTYLAWYQQKPGQSPKLLIYWASTRDSGVPDRFTGSGSGTDFTLTISSVQAEDLAVYYCVQSYTLRTFGGGTKLEIK	8.56
murine monoclonal antibody AP591 (antibody, mouse IgG1, V domains shown) VH: EVQLVESGGGLVQPKGSLKLSCAASGFTFNTYAMNWVRQAPGKGLEWVGRIRSKINNYATYYADSVRDRFTISRDDSQSMLYLQMSNLKTEDTAMYYCVRHDNFYGSTYSWFADWGQGTLVTVSA VL: AVVTQESALTTSPGETVTLTCRSSTGVVTTSNYANWVQEKPDHLFTGLIGATNYRVPGVPARFSGSLIGDKAALTITGAQTEDEAIYFCVLWYSNHWVFGGGTKLTVL	8.05
humanized antibody AB611 (antibody, human IgG4 S228P, kappa, V domains shown, Humanized from AP831 CDRs) VH: EVQLVQSGAEVKKPGSSVKVSCKASGYTFTNNYIHWVKEKPGQGLEWIGWIYPGDGTTKYNEKFKGKTTLASDKSTNTAYMELSSLRSEDTAIYFCTRNNNYYFDYWGQGTTVTVSS VL: DIVMTQSPDSLAVSLGERATMNCKSSQSLFNSRTRKNYLAWYQQKPGESPKLLIYWASTRESGVPDRFSGSGSGTDFTLTISSLQAEDVAVYYCKQSFILRTFGGGTKVEIKR	9.76

Now consider the entry below.
Data request: Complete the entry with pEC50 for humanized antibody AB614 (antibody, human IgG4 S228P, kappa, V domains shown, Humanized from AP591 CDRs) VH: EVQLLESGGGLVQPGGSLKLSCAASGFTFNTYAMNWVRQAPGKGLEWVGRIRSKINNYATYYADSVKDRFTISRDDSKNTAYLQMNNLKTEDTAMYYCVRHDNFYGSTYSWFADWGQGTLVTVSS VL: ELVVTQEPSLTVSPGGTVTLTCRSSTGVVTTSNYANWVQEKPDHLFTGLIGATNYRAPGTPARFSGSLLGGKAALTLSGVQPEDEAIYFCVLWYSNHWVFGGGTKLTVLR
Data returned: 8.93
